Reference for the values: patent US9550778B2

Property: IC50; scope: individual molecules
- SYSTEM TESTED: UniProtKB P31424
- ASSAY INFO: Calcium mobilization assay in HEK 293A cells stably expressing rat mGluR5
- COND: HEK cells transfected with rat mGluR5; inhibition of glutamate EC80 response; ± standard error where average of at least three experiments
MEASUREMENT LABEL: IC50 (nM)

structure=Cc1csc(NC(=O)c2cc(-c3cccc4c3cnn4C)cn3ncnc23)n1 unit_abbrev=nM op== reported=7020
structure=Cc1cc(-c2cc(C(=O)Nc3nc(C)cs3)c3ncnn3c2)[nH]n1 unit_abbrev=nM op== reported=60
structure=Cc1cccc(-c2cc(C(=O)Nc3nc(C)cs3)c3ncnn3c2)c1 unit_abbrev=nM op== reported=4770
structure=Cc1csc(NC(=O)c2cc(-c3ccc4c(cnn4C)c3)cn3ncnc23)n1 unit_abbrev=nM op=> reported=10000
structure=Cc1cc(-c2cc(C(=O)Nc3ccc(F)cn3)c3ncnn3c2)[nH]n1 unit_abbrev=nM op=> reported=30000
structure=Cc1csc(NC(=O)c2cc(-c3cnc(F)c(C)c3)cn3ncnc23)n1 unit_abbrev=nM op== reported=2810
structure=Cc1csc(NC(=O)c2cc(-c3ccncc3)cn3ncnc23)n1 unit_abbrev=nM op== reported=8070
structure=Cc1csc(NC(=O)c2cc(-c3cccnc3)cn3ncnc23)n1 unit_abbrev=nM op== reported=587
structure=Cc1cc(C)cc(-c2cc(C(=O)Nc3nc(C)cs3)c3ncnn3c2)c1 unit_abbrev=nM op=> reported=10000
structure=Cn1nccc1-c1cc(C(=O)Nc2ccc(F)cn2)c2nncn2c1 unit_abbrev=nM op== reported=1450
structure=Cc1cccc(NC(=O)c2cc(-c3cnccc3C)cn3ncnc23)n1 unit_abbrev=nM op== reported=793
structure=Cc1csc(NC(=O)c2cc(-c3ccc4ncccc4c3)cn3ncnc23)n1 unit_abbrev=nM op=> reported=10000
structure=Cc1csc(NC(=O)c2cc(-c3cccc4cnn(C)c34)cn3ncnc23)n1 unit_abbrev=nM op== reported=10200
structure=Cc1cncc(-c2cc(C(=O)Nc3nc(C)cs3)c3ncnn3c2)c1 unit_abbrev=nM op== reported=1500
structure=Cc1csc(NC(=O)c2cc(-c3cnn(C)c3)cn3ncnc23)n1 unit_abbrev=nM op=> reported=10000
structure=Cc1cc(-c2cc(C(=O)Nc3ccc(F)cn3)c3ncnn3c2)n(C)n1 unit_abbrev=nM op== reported=2130
structure=Cc1csc(NC(=O)c2cc(-c3cccnc3F)cn3ncnc23)n1 unit_abbrev=nM op== reported=978

---

Property: IC50; scope: individual compounds
- SYSTEM TESTED: rat mGluR5 (Rattus norvegicus (Rat), UniProt P31424)
- Sequence (P31424 21-1203): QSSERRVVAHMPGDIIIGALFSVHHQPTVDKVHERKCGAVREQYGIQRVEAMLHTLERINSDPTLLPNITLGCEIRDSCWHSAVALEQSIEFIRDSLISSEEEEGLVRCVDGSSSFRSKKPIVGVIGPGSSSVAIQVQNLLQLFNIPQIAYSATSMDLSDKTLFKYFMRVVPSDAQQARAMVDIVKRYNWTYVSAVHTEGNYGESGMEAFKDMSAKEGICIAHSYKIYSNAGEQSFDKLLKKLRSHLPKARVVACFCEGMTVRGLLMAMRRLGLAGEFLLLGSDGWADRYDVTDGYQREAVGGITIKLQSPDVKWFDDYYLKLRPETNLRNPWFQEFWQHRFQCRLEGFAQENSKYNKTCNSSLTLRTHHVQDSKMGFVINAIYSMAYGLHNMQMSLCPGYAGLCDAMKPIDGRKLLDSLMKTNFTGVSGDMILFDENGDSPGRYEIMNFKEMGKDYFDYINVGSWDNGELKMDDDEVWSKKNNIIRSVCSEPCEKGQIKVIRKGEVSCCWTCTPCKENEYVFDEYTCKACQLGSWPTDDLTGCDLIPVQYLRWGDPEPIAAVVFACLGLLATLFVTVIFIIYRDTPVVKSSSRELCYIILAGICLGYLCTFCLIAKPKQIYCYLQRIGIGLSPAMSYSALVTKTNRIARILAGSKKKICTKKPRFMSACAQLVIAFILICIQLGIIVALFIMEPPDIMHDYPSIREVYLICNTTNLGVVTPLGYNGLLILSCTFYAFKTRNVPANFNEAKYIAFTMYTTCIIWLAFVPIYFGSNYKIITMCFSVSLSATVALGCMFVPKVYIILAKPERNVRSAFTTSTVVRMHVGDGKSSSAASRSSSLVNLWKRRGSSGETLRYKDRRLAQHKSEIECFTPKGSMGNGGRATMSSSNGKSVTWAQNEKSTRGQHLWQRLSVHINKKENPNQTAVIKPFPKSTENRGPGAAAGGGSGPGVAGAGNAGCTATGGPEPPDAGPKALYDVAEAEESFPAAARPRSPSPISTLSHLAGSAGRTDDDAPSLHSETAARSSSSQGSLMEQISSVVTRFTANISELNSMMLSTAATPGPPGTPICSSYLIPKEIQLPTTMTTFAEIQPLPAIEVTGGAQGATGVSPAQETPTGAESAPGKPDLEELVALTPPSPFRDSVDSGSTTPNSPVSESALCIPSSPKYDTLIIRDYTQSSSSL
- ASSAY INFO: Calcium mobilization assay in HEK 293A cells stably expressing rat mGluR5
- COND: HEK cells transfected with rat mGluR5; inhibition of glutamate EC80 response; ± standard error where average of at least three experiments
MEASUREMENT LABEL: IC50

structure=Cc1csc(NC(=O)c2cc(-c3ccc4c(ccn4C)c3)cn3ncnc23)n1 system_tested="rat mGluR5 (Rattus norvegicus (Rat), UniProt P31424)" measurement_label=IC50 reported="> 10 µM"
structure=COc1cnc(-c2cc(C(=O)Nc3nc(C)cs3)c3ncnn3c2)cn1 system_tested="rat mGluR5 (Rattus norvegicus (Rat), UniProt P31424)" measurement_label=IC50 reported="> 10 µM"
structure=Cc1csc(NC(=O)c2cc(-c3ccc4cnn(C)c4c3)cn3ncnc23)n1 system_tested="rat mGluR5 (Rattus norvegicus (Rat), UniProt P31424)" measurement_label=IC50 reported="> 10 µM"
structure=Cc1ccncc1-c1cc(C(=O)Nc2ccc(F)cn2)c2ncnn2c1 system_tested="rat mGluR5 (Rattus norvegicus (Rat), UniProt P31424)" measurement_label=IC50 reported="> 10 µM"
structure=Cc1csc(NC(=O)c2cc(-c3cnccc3C3CC3)cn3ncnc23)n1 system_tested="rat mGluR5 (Rattus norvegicus (Rat), UniProt P31424)" measurement_label=IC50 reported="1.01 µM"
structure=COc1ccc(C)c(-c2cc(C(=O)Nc3nc(C)cs3)c3ncnn3c2)c1 system_tested="rat mGluR5 (Rattus norvegicus (Rat), UniProt P31424)" measurement_label=IC50 reported="7.1 µM"
structure=Cc1cc(-c2cc(C(=O)Nc3nc(C)cs3)c3ncnn3c2)ccn1 system_tested="rat mGluR5 (Rattus norvegicus (Rat), UniProt P31424)" measurement_label=IC50 reported="10 µM"
structure=Cc1csc(NC(=O)c2cc(-c3ccn(C)n3)cn3ncnc23)n1 system_tested="rat mGluR5 (Rattus norvegicus (Rat), UniProt P31424)" measurement_label=IC50 reported="> 10 µM"
structure=CCc1cccc(NC(=O)c2cc(-c3cnccc3C)cn3ncnc23)n1 system_tested="rat mGluR5 (Rattus norvegicus (Rat), UniProt P31424)" measurement_label=IC50 reported="1.76 µM"
structure=Cc1csc(NC(=O)c2cc(-c3ccnn3C)cn3ncnc23)n1 system_tested="rat mGluR5 (Rattus norvegicus (Rat), UniProt P31424)" measurement_label=IC50 reported="0.378 µM"
structure=Cc1csc(NC(=O)c2cc(-c3cc4ccccc4o3)cn3ncnc23)n1 system_tested="rat mGluR5 (Rattus norvegicus (Rat), UniProt P31424)" measurement_label=IC50 reported="> 10 µM"
structure=COc1ccc(NC(=O)c2cc(-c3cnccc3C)cn3ncnc23)nc1 system_tested="rat mGluR5 (Rattus norvegicus (Rat), UniProt P31424)" measurement_label=IC50 reported="1.31 µM"
structure=Cc1csc(NC(=O)c2cc(-c3ccccc3)cn3ncnc23)n1 system_tested="rat mGluR5 (Rattus norvegicus (Rat), UniProt P31424)" measurement_label=IC50 reported="0.385 µM"
structure=Cc1csc(NC(=O)c2cc(-c3ccc(F)nc3)cn3ncnc23)n1 system_tested="rat mGluR5 (Rattus norvegicus (Rat), UniProt P31424)" measurement_label=IC50 reported="4.93 µM"
structure=CCc1ccncc1-c1cc(C(=O)Nc2nc(C)cs2)c2ncnn2c1 system_tested="rat mGluR5 (Rattus norvegicus (Rat), UniProt P31424)" measurement_label=IC50 reported="0.984 µM"
structure=Cc1cc(-c2cc(C(=O)Nc3cccc(F)n3)c3ncnn3c2)n(C)n1 system_tested="rat mGluR5 (Rattus norvegicus (Rat), UniProt P31424)" measurement_label=IC50 reported="0.835 µM"
